Source listed as the supplement of paper PMC11061612.

Assign Bliss excess to each entry below.
# Tested on: JHH-4 (Hepatocellular Carcinoma)
# Protocol notes: Bliss excess, mean over the matrix (fraction); higher = more synergy
# respond with the number and nothing more

// sample Cc1c2c(nn1C)CSCc1cc(n(C)n1)CSc1cc(c3ccccc3c1)OCCCc1c(C(=O)O)n(C)c3c-2c(Cl)ccc13 [AZD5991] + Cn1cnc2c(F)c(Nc3ccc(Br)cc3Cl)c(C(=O)NOCCO)cc21 [Selumetinib] (first compound max 1 µM, 7x7, partner max 3 µM) , its Bliss excess was 0.0244

// sample CN(CCO)CC[C@H](CSc1ccccc1)Nc1ccc(S(=O)(=O)NC(=O)c2ccc(N3CCC([C@@H](O)c4ccccc4-c4ccc(Cl)cc4)CC3)cc2)cc1S(=O)(=O)C(F)(F)F [AZD4320] + CN(C)CCCOc1ccc(-c2ccc3ncc4c(c3c2)n(C2CCOCC2)c(=O)n4C)cn1 [AZD0156] (first compound max 1 µM, 7x7, partner max 1 µM) , its Bliss excess was -0.016

Reported Bliss excess for CN(C)CCCOc1ccc(-c2ccc3ncc4c(c3c2)n(C2CCOCC2)c(=O)n4C)cn1 [AZD0156] + O=C(c1cc(Cc2n[nH]c(=O)c3ccccc23)ccc1F)N1CCN(C(=O)C2CC2)CC1 [Olaparib] (first compound max 3 µM, partner max 3 µM) was -0.0166

---

# System: KY821 (Acute Myeloid Leukemia)
# Protocol notes: combination Emax (second highest fraction inhibited in the dose matrix, 72 h); higher = more inhibition; extreme values may be limits of the assay
I'd be grateful if you could share measured combination Emax for these entries.
Please respond with just the number, no unit label.

compound COc1nnc2ccc(N3CCC(c4ccc(OCCN5CCN(C)C(=O)[C@H]5C)cc4)CC3)nn12 [AZD5153] + CCN(CCO)CCCOc1ccc2c(Nc3cc(CC(=O)Nc4cccc(F)c4)[nH]n3)ncnc2c1 [AZD2811] (first compound max 1 µM, 7x7, partner max 1 µM) , combination Emax observed: 1

Reported combination Emax of CCN(CCO)CCCOc1ccc2c(Nc3cc(CC(=O)Nc4cccc(F)c4)[nH]n3)ncnc2c1 [AZD2811] + O=C(c1cc(Cc2n[nH]c(=O)c3ccccc23)ccc1F)N1CCN(C(=O)C2CC2)CC1 [Olaparib] (first compound max 1 µM, 7x7, partner max 10 µM) : 0.455

Entry CN(C)CCCOc1ccc(-c2ccc3ncc4c(c3c2)n(C2CCOCC2)c(=O)n4C)cn1 [AZD0156] + C=CCn1c(=O)c2cnc(Nc3ccc(N4CCN(C)CC4)cc3)nc2n1-c1cccc(C(C)(C)O)n1 [AZD1775] (first compound max 1 µM, partner max 1 µM) — recorded combination Emax = 0.987

combination Emax reported for this compound CN(C)CCCOc1ccc(-c2ccc3ncc4c(c3c2)n(C2CCOCC2)c(=O)n4C)cn1 [AZD0156] + O=C(c1cc(Cc2n[nH]c(=O)c3ccccc23)ccc1F)N1CCN(C(=O)C2CC2)CC1 [Olaparib] (first compound max 3 µM, partner max 3 µM) : 0.4

The recorded combination Emax for entry COc1nnc2ccc(N3CCC(c4ccc(OCCN5CCN(C)C(=O)[C@H]5C)cc4)CC3)nn12 [AZD5153] + C[C@@H]1COCCN1C2=NC(=NC(=C2)C3(CC3)[S@](=N)(=O)C)C4=C5C=CNC5=NC=C4 [AZD6738] (first compound max 1 µM, 7x7, partner max 10 µM) equals 1

The compound CC1(C)CCC(CN2CCN(c3ccc(C(=O)NS(=O)(=O)c4ccc(NCC5CCOCC5)c([N+](=O)[O-])c4)c(Oc4cnc5[nH]ccc5c4)c3)CC2)=C(c2ccc(Cl)cc2)C1 [Venetoclax] + Cc1cc2ncnn2cc1Nc1ncc2c(n1)n(C1CCOCC1)c(=O)n2C [AZD7648] (first compound max 1 µM, 7x7, partner max 10 µM) showed combination Emax equal to 0.956

Measured combination Emax of Cc1c2c(nn1C)CSCc1cc(n(C)n1)CSc1cc(c3ccccc3c1)OCCCc1c(C(=O)O)n(C)c3c-2c(Cl)ccc13 [AZD5991] + CCN(CCO)CCCOc1ccc2c(Nc3cc(CC(=O)Nc4cccc(F)c4)[nH]n3)ncnc2c1 [AZD2811] (first compound max 1 µM, 7x7, partner max 1 µM) : 1

---

# Tested on: COR-L279 (Small Cell Lung Carcinoma)
# Protocol notes: combination Emax (second highest fraction inhibited in the dose matrix, 72 h); higher = more inhibition; extreme values may be limits of the assay
I'd be grateful if you could share measured combination Emax for these entries.
Answer with a number only.

get_value(item= CCN(CCO)CCCOc1ccc2c(Nc3cc(CC(=O)Nc4cccc(F)c4)[nH]n3)ncnc2c1 [AZD2811] + C=CCn1c(=O)c2cnc(Nc3ccc(N4CCN(C)CC4)cc3)nc2n1-c1cccc(C(C)(C)O)n1 [AZD1775] (first compound max 1 µM, partner max 1 µM) , readout=combination Emax) returns 0.662

Lookup result for COc1cc2c(cc1OCCCCCOc1cc3c(cc1OC)C(=O)N1C=C(C)C[C@H]1C=N3)N=C[C@@H]1CC(C)=CN1C2=O [SG3199] + O=C(c1cc(Cc2n[nH]c(=O)c3ccccc23)ccc1F)N1CCN(C(=O)C2CC2)CC1 [Olaparib] (first compound max 0.001 µM, 7x7, partner max 10 µM) ; measured combination Emax: 0.878

Lookup result for Cc1c2c(nn1C)CSCc1cc(n(C)n1)CSc1cc(c3ccccc3c1)OCCCc1c(C(=O)O)n(C)c3c-2c(Cl)ccc13 [AZD5991] + Cc1cc2ncnn2cc1Nc1ncc2c(n1)n(C1CCOCC1)c(=O)n2C [AZD7648] (first compound max 1 µM, 7x7, partner max 10 µM) ; measured combination Emax: 0.468

Query COc1cccc(OCCCN)c1-c1cc(Nc2cnc(C#N)cn2)n[nH]1 [Prexasertib] + CCc1c2c(nc3ccc(O)cc13)-c1cc3c(c(=O)n1C2)COC(=O)[C@]3(O)CC [SN-38] (first compound max 1 µM, 7x7, partner max 0.3 µM) yields combination Emax of 1

---

# Tested on: T-T (Esophageal Squamous Cell Carcinoma)
# Protocol notes: combination Emax (second highest fraction inhibited in the dose matrix, 72 h); higher = more inhibition; extreme values may be limits of the assay
combination Emax of 0.9 or higher: 1.0. Under 0.9: 0.0.

Prompt: Form field: combination Emax at least 0.9? Entry: Cc1c2c(nn1C)CSCc1cc(n(C)n1)CSc1cc(c3ccccc3c1)OCCCc1c(C(=O)O)n(C)c3c-2c(Cl)ccc13 [AZD5991] + Cn1cnc2c(F)c(Nc3ccc(Br)cc3Cl)c(C(=O)NOCCO)cc21 [Selumetinib] (first compound max 1 µM, 7x7, partner max 3 µM)
Completion: 1.0

Prompt: Kindly determine if combination Emax recorded for CC1(C)CCC(CN2CCN(c3ccc(C(=O)NS(=O)(=O)c4ccc(NCC5CCOCC5)c([N+](=O)[O-])c4)c(Oc4cnc5[nH]ccc5c4)c3)CC2)=C(c2ccc(Cl)cc2)C1 [Venetoclax] + C[C@@H](Nc1cc(F)cc(F)c1)c1cc(C(=O)N(C)C)cc2c(=O)cc(N3CCOCC3)oc12 [AZD8186] (first compound max 1 µM, 7x7, partner max 3 µM) is above or exactly 0.9.
Completion: 0.0

Prompt: Textbook exercise: given the entry Cc1cc2ncnn2cc1Nc1ncc2c(n1)n(C1CCOCC1)c(=O)n2C [AZD7648] + CCN(CCO)CCCOc1ccc2c(Nc3cc(CC(=O)Nc4cccc(F)c4)[nH]n3)ncnc2c1 [AZD2811] (first compound max 10 µM, 7x7, partner max 1 µM) , state whether its combination Emax is greater than or equal to 0.9.
Completion: 0.0

Prompt: Could you verify whether the entry COc1nnc2ccc(N3CCC(c4ccc(OCCN5CCN(C)C(=O)[C@H]5C)cc4)CC3)nn12 [AZD5153] + Cc1c2c(nn1C)CSCc1cc(n(C)n1)CSc1cc(c3ccccc3c1)OCCCc1c(C(=O)O)n(C)c3c-2c(Cl)ccc13 [AZD5991] (first compound max 1 µM, 7x7, partner max 1 µM) shows combination Emax of no less than 0.9?
Completion: 1.0

Prompt: # check: combination Emax of CC1(C)CCC(CN2CCN(c3ccc(C(=O)NS(=O)(=O)c4ccc(NCC5CCOCC5)c([N+](=O)[O-])c4)c(Oc4cnc5[nH]ccc5c4)c3)CC2)=C(c2ccc(Cl)cc2)C1 [Venetoclax] + C=CCn1c(=O)c2cnc(Nc3ccc(N4CCN(C)CC4)cc3)nc2n1-c1cccc(C(C)(C)O)n1 [AZD1775] (first compound max 1 µM, partner max 1 µM) is greater than or equal to 0.9
Completion: 0.0

---

# Test system: MN-60 (B-Lymphoblastic Leukemia)
# Protocol notes: Bliss excess, mean over the matrix (fraction); higher = more synergy
Please respond with reported Bliss excess for every item in the list.

The recorded Bliss excess for entry CC(=O)Nc1cccc(-n2c(=O)n(C3CC3)c(=O)c3c(Nc4ccc(I)cc4F)n(C)c(=O)c(C)c32)c1 [Trametinib] + Cc1nc(-c2cn3c(n2)-c2ccc(-c4cnn(C(C)(C)C(N)=O)c4)cc2OCC3)n(C(C)C)n1 [Taselisib] (first compound max 1 µM, 7x7, partner max 10 µM) equals 0.0265

Recorded result, CCc1c2c(nc3ccc(O)cc13)-c1cc3c(c(=O)n1C2)COC(=O)[C@]3(O)CC [SN-38] + O=C(c1cc(Cc2n[nH]c(=O)c3ccccc23)ccc1F)N1CCN(C(=O)C2CC2)CC1 [Olaparib] (first compound max 0.3 µM, 7x7, partner max 10 µM) , Bliss excess: 0.0066
